tested target: T1, Full length mouse CD98hc on CHO cells (mouse, UniProt P10852 1-526)
T1 construct: CHO cells stably overexpressing it; also called CHO-mouse CD98hc; CHO-mCD98hc
T1 sequence: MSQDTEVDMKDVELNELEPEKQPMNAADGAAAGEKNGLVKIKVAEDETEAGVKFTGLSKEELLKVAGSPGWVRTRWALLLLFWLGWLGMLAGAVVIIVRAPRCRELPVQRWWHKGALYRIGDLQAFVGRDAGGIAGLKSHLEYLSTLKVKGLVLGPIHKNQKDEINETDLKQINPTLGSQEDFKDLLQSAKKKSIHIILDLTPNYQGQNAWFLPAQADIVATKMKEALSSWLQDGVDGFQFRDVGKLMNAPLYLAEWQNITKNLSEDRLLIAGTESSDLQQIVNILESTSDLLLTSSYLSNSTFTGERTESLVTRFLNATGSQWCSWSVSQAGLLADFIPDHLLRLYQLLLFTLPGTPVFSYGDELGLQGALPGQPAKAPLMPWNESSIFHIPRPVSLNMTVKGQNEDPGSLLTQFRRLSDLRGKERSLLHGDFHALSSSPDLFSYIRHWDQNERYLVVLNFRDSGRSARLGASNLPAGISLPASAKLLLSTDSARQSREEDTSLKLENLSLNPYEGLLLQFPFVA
measurement description: FACS, hybridoma supernatant
recorded metric: MFI ratio over secondary antibody

INSERT INTO measurements (binder, endpoint_result) VALUES
  ('CD98HC.04.010 (antibody, V domains shown, hybridoma IgG) VH: QVQLQQSGAELMKPGASVKISCKATGYTFSTYWIEWVKQRPGHGLEWIGEILPGSGTTTYNEKFKGKATFTADTSSNTAYMQLSSLTSEDSAVYYCARRTVYYRYEGIDYWGQGTTLTVSS VL: QIVLTQSPAIMSASPGEKVTITCSASSSVSYMFWFQQRPGTSPKLWIYTTSNLASGVPARFSGSGSGTSYSLTISRMEAEDAATYYCQQKNNYPFTFGSGTKLEIK', 1.1),
  ('CD98HC.03.004 (antibody, V domains shown, hybridoma IgG) VH: DVQLQESGPGLVKPSQSLSLTCTVTGYSITNNYAWNWIRRFPGNKLEWMAYISYSGYTSYNPSLKSRISITRDTSKNQFFLQLNSVTTEDTATYYCTGYFYYYGGGSFDYWGQGTTLTVSS VL: QAVVTQESALTTSPGETVTLTCRSSTGAVTTSNFANWVQEKPDHLFTGLIRGSNNRAPGVPARFSGSLIGDKAALTITGARTEDEAIYFCALWYSDHWVFGGGTKLTVL', 1),
  ('CD98HC.04.046 (antibody, V domains shown, hybridoma IgG) VH: QIQLVQSGPVLKKPGETVKISCKASGYTFTNFGMNWVKQAPGKGLKWMGWIDTYTREPTYVDDFKGRFAFSLETSVTTAYLQINDLKNEDSATYFCARGESHWYFDVWGAGTTVTVSS VL: QIVLTQSPAIMSASLGERVTMTCIVSSSVSSSYLYWYQQKPGSSPKLWIYSTSILASGVPGRFSGSGSGTSYSLTISSMEAEDAATYYCHQYHRSPPTFGGGTKLEIK', 1.2),
  ('CD98HC.04.045 (antibody, V domains shown, hybridoma IgG) VH: QIQLVQSGPELKKPGETVKISCKASGYSITNFGMNWVKQAPGKGLKWMGWVNTYTGEPTYADDFKGRFAFSLETSASTASLQINNLKNEDTATYFCTRSVITYTMDYWGQGTSVTVSS VL: DIQLTQSPSSLSASLGERVSLTCRASQEISGYLSWLQQKPDGTIKRLIYAASTLDSGVPKRFSGSRSGSDYSLTISSLESEDFADYYCLQYASYPRTFGGGTKVEIK', 1.2),
  ('CD98HC.04.062 (antibody, V domains shown, hybridoma IgG) VH: EVQLVESGGDLVKPGGSLKLSCTASRFAFSTYDMSWVRQTPEKRLEWVAYISSGGGSTYFPDTVKGRFTISRDNAKNTLYLQMSSLKSEDTAMYYCARQDGHYPWFPYWGQGTLVTVSA VL: DIVMSQSPSSLAVSVGEKVTMSCKSSQSLLYSGNQKTYLAWYQQKPGQSPKPLIYWASTRESGIPDRFTGSGSGTDFTLTISSVKAEDLAVYYCQQYYSYPPTFGAGTKLELK', 1.3),
  ('CD98HC.03.010 (antibody, V domains shown, hybridoma IgG) VH: EVQLQQSGTELVKPGASVKLSCTASGLDIKDTYLHWVKQRPEQGLEWIGKIDPANGNTKYNPKFQGKATITADTSSNTAYLQLSSLTSEDTAVHYCTTPYYSGSSYGDYWGQGTTLTVSS VL: QIVLTQSPAIMSASPGEKVTLTCSASSSVSSSYLYWYQQKPGSSPKLWIYSTSNLASGVPARFSGSGSGTSYSLTISSMEAEDAASYFCHQWSRYPLTFGAGTKLELK', 1);
